Origin of measurements: paper PMC12035805

- EXPERIMENT_DESCRIPTION: Log P, 1-octanol/water partition
- Type: physicochemical
- PARTICULARS: 1-octanol/water (1:1)
MEASUREMENT_NAME: logP

Guide cases for logP, answers given:
COMPOUND	logP
C#CCC[n+]1c(/C=C/c2ccc(-c3ccc(N(c4ccc(OCCC[N+](C)(C)C)cc4)c4ccc(OCCC[N+](C)(C)C)cc4)cc3)s2)sc2ccccc21.[Br-].[Br-].[Br-]	-1.6
CC[n+]1c(/C=C/c2ccc(-c3ccc(N(c4ccc(OC)cc4)c4ccc(OC)cc4)cc3)s2)sc2ccccc21.[Br-] [TPA-NC-1, reference compound]	1.1

Now for the compound whose logP we want.
## Task Annotate the compound `CC[n+]1c(/C=C/c2ccc(-c3ccc(N(c4ccc(OCCC[N+](C)(C)C)cc4)c4ccc(OCCC[N+](C)(C)C)cc4)cc3)s2)sc2ccccc21.[Br-].[Br-].[Br-]` with its measured logP.
## Result -1.7
